Target: mouse Tas2r105 (Mus musculus)
Construct: expressed in transfected cells; host or cells: HEK293T-Gα16gust44
Sequence (Q9JKT4 whole entry): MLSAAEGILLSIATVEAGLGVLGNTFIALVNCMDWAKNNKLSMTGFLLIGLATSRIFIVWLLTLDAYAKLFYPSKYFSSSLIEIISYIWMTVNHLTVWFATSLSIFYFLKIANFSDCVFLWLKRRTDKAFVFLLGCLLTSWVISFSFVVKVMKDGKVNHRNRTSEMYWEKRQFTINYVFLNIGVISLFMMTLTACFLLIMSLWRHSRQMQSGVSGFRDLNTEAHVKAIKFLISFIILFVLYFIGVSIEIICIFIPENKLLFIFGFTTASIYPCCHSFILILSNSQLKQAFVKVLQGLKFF
Assay: Calcium imaging assay (FLIPR), HEK293T-Gα16gust44 cells transfected with mouse Tas2r105
Format: cell-based
Conditions: Time 72.781 s
Experimental: This set of bile acids was chosen because of their commercial availability in high purities, their diversity within the class of bile acids and their previous detection and quantitation in human blood. Stock solutions were prepared in DMSO. […] Measured data were negative control corrected by subtracting the signal of the mock-transfected cells and exported to Microsoft Excel using the FLIPR software ScreenWorks 4.2. […]
EXPERIMENTAL ENDPOINT: RLU (RLU)

{"COMPOUND": "C[C@H](CCC(=O)NCC(=O)O)[C@H]1CC[C@H]2[C@@H]3[C@H](O)C[C@@H]4C[C@H](O)CC[C@]4(C)[C@H]3C[C@H](O)[C@]12C [Glycocholic Acid, glycocholic acid]", "EXPERIMENTAL ENDPOINT": "RLU", "ENDPOINT UNIT": "RLU", "REPORTED VALUE": 413.221}
{"COMPOUND": "C[C@H](CCC(=O)O)[C@H]1CC[C@H]2[C@@H]3CC[C@@H]4C[C@H](O)CC[C@]4(C)[C@H]3CC[C@]12C [Lithocholic Acid, lithocholic acid]", "EXPERIMENTAL ENDPOINT": "RLU", "ENDPOINT UNIT": "RLU", "REPORTED VALUE": 132.041}
{"COMPOUND": "C[C@H](CCC(=O)O)[C@H]1CC[C@H]2[C@@H]3CC[C@@H]4C[C@H](O)CC[C@]4(C)[C@H]3C[C@H](O)[C@]12C [Deoxycholic Acid, deoxycholic acid]", "EXPERIMENTAL ENDPOINT": "RLU", "ENDPOINT UNIT": "RLU", "REPORTED VALUE": 53.1321}
{"COMPOUND": "C[C@H](CCC(=O)O)[C@H]1CC[C@H]2[C@@H]3[C@H](O)C[C@@H]4C[C@H](O)CC[C@]4(C)[C@H]3C[C@H](O)[C@]12C [Cholic Acid, cholic acid]", "EXPERIMENTAL ENDPOINT": "RLU", "ENDPOINT UNIT": "RLU", "REPORTED VALUE": 449.971}

----------
target: human TAS2R1 (Homo sapiens); construct: expressed in transfected cells; host or cells: HEK293T-Gα16gust44; assay: Calcium imaging assay (FLIPR), HEK293T-Gα16gust44 cells transfected with human TAS2R1; type: cell-based; conditions: Time 46.781 s
Sequence (Q9NYW7 whole entry): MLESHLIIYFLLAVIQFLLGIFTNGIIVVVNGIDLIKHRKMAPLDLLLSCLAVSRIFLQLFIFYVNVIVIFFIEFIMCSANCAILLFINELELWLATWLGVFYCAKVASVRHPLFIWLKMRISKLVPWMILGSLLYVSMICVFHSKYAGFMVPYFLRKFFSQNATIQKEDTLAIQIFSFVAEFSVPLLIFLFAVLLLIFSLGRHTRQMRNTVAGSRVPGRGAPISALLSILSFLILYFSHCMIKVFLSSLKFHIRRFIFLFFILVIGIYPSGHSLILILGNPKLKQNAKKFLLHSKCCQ

{"MOLECULE": "C[C@H](CCC(=O)NCCS(=O)(=O)O)[C@H]1CC[C@H]2[C@@H]3CC[C@@H]4C[C@H](O)CC[C@]4(C)[C@H]3CC[C@]12C [Taurolithocholic Acid, taurolithocholic acid]", "RLU (RLU)": 572.975}
{"MOLECULE": "C[C@H](CCC(=O)NCC(=O)O)[C@H]1CC[C@H]2[C@@H]3[C@H](O)C[C@@H]4C[C@H](O)CC[C@]4(C)[C@H]3C[C@H](O)[C@]12C [Glycocholic Acid, glycocholic acid]", "RLU (RLU)": 594.154}
{"MOLECULE": "C[C@H](CCC(=O)NCCS(=O)(=O)O)[C@H]1CC[C@H]2[C@@H]3[C@H](O)C[C@@H]4C[C@H](O)CC[C@]4(C)[C@H]3C[C@H](O)[C@]12C [Taurocholic Acid, taurocholic acid]", "RLU (RLU)": 349.497}
{"MOLECULE": "C[C@H](CCC(=O)O)[C@H]1CC[C@H]2[C@@H]3CC[C@@H]4C[C@H](O)CC[C@]4(C)[C@H]3C[C@H](O)[C@]12C [Deoxycholic Acid, deoxycholic acid]", "RLU (RLU)": 370.806}
